Recorded Metric: melting point

{"columns": ["Compound", "Reported Measurement"],
 "data": [
  ["Cc1cc2c(cc1C(=O)N1CCc3cc(F)ccc31)[nH]c(=O)c1cnc([C@H]3CC[C@H](O)CC3)n12.Cl", "199 to 201 °C"],
  ["Cc1cc2c(cc1C(=O)N1CCc3cc(Cl)ccc31)[nH]c(=O)c1cnc(C3CCCOC3)n12.Cl (stereo not drawn)", "206 to 208 °C"],
  ["COc1cc2c(cn1)N(C(=O)c1cc3[nH]c(=O)c4cnc(C5CCOCC5)n4c3cc1OC)CC2", "237 °C (dec.)"],
  ["Cc1cc2c(cc1C(=O)N1Cc3cccc(C)c3C1)[nH]c(=O)c1cnc(C3CCOCC3)n12.Cl", "206 to 208 °C"]
]}

Report melting point for every entry below.
1. COc1cc2c(cc1C(=O)N1Cc3ccccc3C[C@@H]1CO)[nH]c(=O)c1cnc(C3CCCCC3)n12
2. Cc1cc2c(cc1C(=O)N1Cc3ccccc3C1)[nH]c(=O)c1cnc(C3CCOC3)n12.Cl (stereo not drawn)
3. Cc1cc2c(cc1C(=O)N1Cc3ccccc3C1)[nH]c(=O)c1nnc(-c3ccccc3)n12

Output line:
215 °C (dec.)
270 °C (dec.)
316 °C (dec.)

###

Recorded Metric: melting point

{"columns": ["Compound", "melting point"],
 "data": [
  ["COc1cc2c(cn1)N(C(=O)c1cc3[nH]c(=O)c4nnc(C5CCOCC5)n4c3cc1C)CC2", "271 °C (dec.)"]
]}

Report melting point for every entry below.
1. Cc1cc2c(cc1C(=O)N1Cc3ccc(F)cc3C1)[nH]c(=O)c1cnc(C3CCCC3)n12
2. COc1cccc2c1CN(C(=O)c1cc3[nH]c(=O)c4cnc(C5CCOCC5)n4c3cc1C)C2.Cl
3. COc1cc2c(cc1C(=O)N1Cc3ccccc3C1)[nH]c(=O)c1cnc(C3CCCCC3)n12.Cl
4. Cc1cc2c(cc1C(=O)N1Cc3ccccc3C1)[nH]c(=O)c1nnc(C3CCOC(C)(C)C3)n12 (stereo not drawn)
5. Cc1cc2c(cc1C(=O)N1CCc3cc(Br)cnc31)[nH]c(=O)c1nnc(C3CCOCC3)n12

Output line:
1. 228 to 231 °C
2. 209 °C (dec.)
3. 299 to 303 °C
4. 287 °C (dec.)
5. 222 to 223 °C

###

For each record, write down the corresponding melting point.

Report melting point for every entry below.
1. Cl.O=C(c1cc2[nH]c(=O)c3cnc(C4CCOCC4)n3c2cc1OCCO)N1CCc2cc(Cl)ccc21
2. Cc1cc2c(cc1C(=O)N1Cc3cccc(I)c3C1)[nH]c(=O)c1cnc(C3CCOCC3)n12.Cl
3. Cc1cc2c(cc1C(=O)N1CCc3cc(Cl)ccc31)[nH]c(=O)c1nnc([C@H]3CC[C@@H](O)CC3)n12
4. Cc1cc2c(cc1C(=O)N1CCc3cc(Br)ccc31)[nH]c(=O)c1cnc(C3CCOCC3)n12.Cl
5. Cc1cc2c(cc1C(=O)N1CCc3cc(F)cnc31)[nH]c(=O)c1cnc(C3CCOCC3)n12.Cl
6. Cc1cc2c(cc1C(=O)N1Cc3ccc(Cl)cc3C1)[nH]c(=O)c1cnc(C3CCOCC3)n12.Cl

Output line:
["303 to 306 °C (dec.)", "313 °C (dec.)", "277 to 279 °C", "219 to 220 °C (dec.)", "340 °C (dec.)", "210 to 214 °C"]

###

For each record, write down the corresponding melting point.

{"columns": ["Compound", "melting point"],
 "data": [
  ["COCc1cc2c(cc1C(=O)N1CCc3cc(F)ccc31)[nH]c(=O)c1cnc(C3CCOCC3)n12.Cl", "301 to 304 °C (dec.)"],
  ["Cc1cc2c(cc1C(=O)N1CCc3cc(Cl)ccc31)[nH]c(=O)c1cnc([C@H]3CC[C@H](C(N)=O)CC3)n12", "234 to 237 °C"],
  ["Cc1cc2c(cc1C(=O)N1Cc3ccccc3C1)[nH]c(=O)c1cnc(C3CCOCC3)n12", "312 °C (dec.)"],
  ["Cc1cc2c(cc1C(=O)N1Cc3cccc(C#N)c3C1)[nH]c(=O)c1cnc(C3CCOCC3)n12.Cl", "328 °C (dec.)"],
  ["Cc1cc2c(cc1C(=O)N1CCc3cc(Cl)ccc31)[nH]c(=O)c1nnc(C(=O)C3CC3)n12.Cl", "288 to 290 °C"]
]}

Report melting point for every entry below.
1. Cc1cc2c(cc1C(=O)N1CCc3cc(S(=O)(=O)N(C)C)ccc31)[nH]c(=O)c1cnc(C3CCOCC3)n12.Cl
2. Cc1cc2c(cc1C(=O)N1CCc3cc(Cl)ccc31)[nH]c(=O)c1nnc(C3CCCOC3)n12.Cl (stereo not shown)

Output line:
209 to 212 °C
298 to 301 °C

###

For each record, write down the corresponding melting point.

{"columns": ["Molecule", "Reported Measurement"],
 "data": [
  ["Cc1cc2c(cc1C(=O)N1Cc3ccccc3C1)[nH]c(=O)c1nnc(C3CCC3)n12.Cl", "236 °C (dec.)"],
  ["Cc1cc2c(cc1C(=O)N1CCc3ccc([N+](=O)[O-])cc31)[nH]c(=O)c1cnc(C3CCOCC3)n12.Cl", "301 to 304 °C"],
  ["Cc1cc2c(cc1C(=O)N1CC(C)(C)c3cc(Cl)ccc31)[nH]c(=O)c1nnc(C3CCOCC3)n12.Cl", "227 to 230 °C"],
  ["COc1cc2c(cc1C(=O)N1CCOC(c3ccccc3)C1)[nH]c(=O)c1cnc(C3CCCCC3)n12.Cl (centres unmarked)", "182 to 186 °C"],
  ["Cc1cc2c(cc1C(=O)N1Cc3ccccc3C1)[nH]c(=O)c1cnc(C3CCCC3)n12", "304 °C (dec.)"]
]}

Report melting point for every entry below.
1. Cl.O=C(c1cc2[nH]c(=O)c3cnc(C4CCOCC4)n3c2cc1C1CC1)N1CCc2cc(Cl)ccc21
2. CCCc1nnc2c(=O)[nH]c3cc(C(=O)N4Cc5ccc(F)cc5C4)ccc3n12
3. Cc1cc2c(cc1C(=O)N1CCc3cc(F)c(Cl)cc31)[nH]c(=O)c1nnc(C3CCCC3)n12.Cl

Output line:
339 to 342 °C (dec.)
293 °C (dec.)
276 to 278 °C

###

Recorded Metric: melting point

Consider the reported melting point for these compounds:
{"columns": ["Compound", "melting point"],
 "data": [
  ["Cc1cc2c(cc1C(=O)N1CCc3ccc(C(F)(F)F)cc31)[nH]c(=O)c1cnc(C3CCOCC3)n12.Cl", "276 to 277 °C"],
  ["Cc1cc2c(cc1C(=O)N1Cc3ccccc3C1)[nH]c(=O)c1nnc(C3CCCC3)n12", "318 °C (dec.)"],
  ["Cc1cnc2c(c1)CCN2C(=O)c1cc2[nH]c(=O)c3cnc(C4CCOCC4)n3c2cc1C", "313 to 315 °C"],
  ["COCc1cc2c(cc1C(=O)N1Cc3cccc(F)c3C1)[nH]c(=O)c1cnc(C3CCOCC3)n12.Cl", "277 °C (dec.)"],
  ["Cc1cc2c(cc1C(=O)N1Cc3cccc(N4CCOCC4)c3C1)[nH]c(=O)c1cnc(C3CCOCC3)n12.Cl", "225 °C (dec.)"]
]}

Report melting point for every entry below.
1. Cc1cc2c(cc1C(=O)N1CCc3cccnc31)[nH]c(=O)c1c(C)nc(C3CCOCC3)n12
2. Cc1cc2c(cc1C(=O)N1CCc3cc(Cl)ccc31)[nH]c(=O)c1cnc([C@H]3CC[C@@H](O)CC3)n12.Cl
3. COCc1cc2c(cc1C(=O)N1CCc3cc(OC)ncc31)[nH]c(=O)c1cnc(C3CCOCC3)n12
4. Cc1cc2c(cc1C(=O)N1CCc3cccnc31)[nH]c(=O)c1nnc(C3CCOCC3)n12
5. Cc1cc2c(cc1C(=O)N1Cc3ccccc3C1)[nH]c(=O)c1nnc(C3(C)CCOCC3)n12
6. Cc1cc2c(cc1C(=O)N1CCc3c(Cl)cccc3C1)[nH]c(=O)c1nnc(C3CCOCC3)n12
7. Cc1cc2c(cc1C(=O)N1Cc3ccccc3C1)[nH]c(=O)c1nnc(C3CCOCC3)n12
8. Cc1cc2c(cc1C(=O)N1CCc3cc(Cl)ccc31)[nH]c(=O)c1nnc(-c3ccccc3)n12

Output line:
192 °C (dec.)
204 to 206 °C
208 °C (dec.)
370 °C (dec.)
232 °C (dec.)
269 °C (dec.)
305 °C (dec.)
248 to 249 °C

###

Recorded Metric: melting point

{"columns": ["Compound", "melting point"],
 "data": [
  ["Cc1cc2c(cc1C(=O)N1CCc3cc(Cl)ccc31)[nH]c(=O)c1nnc(CC3CC3)n12", "303 to 305 °C"]
]}

Report melting point for every entry below.
1. COc1cc2c(cn1)N(C(=O)c1cc3[nH]c(=O)c4cnc(C5CCOCC5)n4c3cc1C)CC2
2. Cc1cc2c(cc1C(=O)N1CCc3cc(Br)cnc31)[nH]c(=O)c1nnc(C3CCC(F)(F)CC3)n12
3. Cc1cc2c(cc1C(=O)N1Cc3ccccc3C1)[nH]c(=O)c1cnc([C@@H]3CCC[C@@H]3O)n12 (racemic)
4. Cc1cc2c(cc1C(=O)N1CCc3cc(Cl)ccc31)[nH]c(=O)c1cnc([C@H]3CC[C@H](O)CC3)n12.Cl
5. O=C(c1ccc2c(c1)[nH]c(=O)c1nnc(C3CCOCC3)n12)N1CCOC(c2ccccc2)C1 (stereo not drawn)
6. Cc1cc2c(cc1C(=O)N1CCc3cc(C4CC4)cnc31)[nH]c(=O)c1nnc(C3CCCC3)n12
7. Cc1cc2c(cc1C(=O)N1CCc3ccccc31)[nH]c(=O)c1cnc(C3CCCC3)n12
8. Cc1cc2c(cc1C(=O)N1Cc3ccccc3C1)[nH]c(=O)c1nnc(CC3CC[S+]([O-])CC3)n12 (stereo not drawn)

Output line:
232 to 233 °C
343 °C (dec.)
301 to 302 °C (dec.)
207 to 209 °C
275 to 276 °C
208 to 209 °C
291 °C (dec.)
248 °C (dec.)

Report melting point for every entry below.
1. COc1cc2c(cc1C(=O)N1Cc3ccccc3C1)[nH]c(=O)c1nnc(C3CCOCC3)n12.Cl
2. Cc1cc2c(cc1C(=O)N1CCc3cc(F)ccc31)[nH]c(=O)c1nnc(C3CCC(F)(F)CC3)n12.Cl
3. O=C(c1ccc2c(c1)[nH]c(=O)c1nnc(C3CCOCC3)n12)N1Cc2ccccc2C1

Output line:
["228 °C (dec.)", "220 °C (dec.)", "303 °C (dec.)"]
